- protocol: yeast display, Sf9 membrane polyspecificity reagent, FACS + sequencing; frameworks hold sequencing errors
readout.type: polyreactivity (PSR sort gate)

QVQLVESGGGLVQAGGSLRLSCAASGSTSQINAMGWYRQAPGKERELVAAITWSGDSTYYADSVKGRFTISRDNAKNTVYLQMNSLKPEDTAVYYCAAVSRYFSTYLYDYWGQGTQVTVSS low polyreactivity
QVQLVESGGGLVQAGGSLRLSCAASVRIFPTNAMGWYRQAPGKEREFVAAITWLGGSTYYADSVKGRFTISRDNAKNTVYLQMNRLKPEDTAVYYCAATGHIVFFRAYDYGYWGQGTQVTVSS low polyreactivity
QVQLVDSGGGLVQAGGSLRLSCAASGFTFWRYVMGWYRQAPGKERELVAAISGRGSRTFYADSVKGRFTISRDNAKNTVYLQMNSLKPEDTAVYYCNAYPGTSGTLYVTPYDYWGQGSQVTVSS high polyreactivity
QVQLVESGGGLVQAGGSLRLSCAASGSTFLRYAMGWYRQAPGKERELVATISRSDDGTYYADSVKGRFTISRDNAKNTVYLQMNSLKPEDTAVYYCAARSWYLYYYWGQGTQVTVSS low polyreactivity
QVQLVESGGGLVQAGGSLRLSCAASGRIFTIYAMGWYRQAPGKERELVATISRRGGSTYYADSVKGRFTISRDNSKNTVYLQMNSLKPEDTAVYYCAAESVITWWAYDYWGQGTQVTVSS high polyreactivity

Field: next sequence
Supply measured polyreactivity (PSR sort gate) of "QVQLVESGGGLVQAVGSLRLSCAASVIIFDVNAMGWYRQAPAKERELVATISKRGGTTYYADSVKGRFTISRDNAKNTVYLQMYSLKPEDTAVYYCAARHQTLRSYRYDYWGQGTQVTVSS" in your reply.
low polyreactivity
